Collected kon values appear next to each entry.
Molecular target: T1, FokI catalytic domain protein including a C-terminal 6xHis tag and GSGS linker (Flavobacterium okeanokoites, UniProt P14870 426-579)
T1 construct: also called Fok-1; Fok1
T1 sequence: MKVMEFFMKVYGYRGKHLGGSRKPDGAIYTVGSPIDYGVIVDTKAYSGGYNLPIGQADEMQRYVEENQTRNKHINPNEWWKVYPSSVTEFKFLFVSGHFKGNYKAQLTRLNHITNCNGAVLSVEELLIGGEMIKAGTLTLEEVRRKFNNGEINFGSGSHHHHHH
Assay: Biacore SPR, antibody as ligand, FokI as analyte
All answers are understood in M⁻¹ s⁻¹, so give the number only.

The examples below pair each entry with its known result.
1) 2299.2G3.C6 (antibody, V domains shown) VH: QIQLVQSGPELKKPGETVKISCKASGYTFTDYSIHWVKQAPGEGLKWMAWINTETGAPTFADDFKGRLALSLETSANTAYLQINNLKHEDTATYFCAKEGGFYFYAMDYWGQGTSVTVSS VL: DIVMSQSPSSRAVSAGEKVTMSCKSSQSLLSSRTRKNYLAWYQQKPGQAPKMLISWASTREFGVPDRFTGSGFGTDFTLTISSVQGEDLAVYYCKQSYNFRTFGGGTKLEIK    17700
2) 2299.5D4.C8 (antibody, V domains shown) VH: QIQLVQSGPELKKPGETVKISCKASGYTFTDYSIHWVKQAPGEGLKWMAWINTETGAPTFADDFKGRLALSLETSANTAYLQINNLKHEDTATYFCAKEGGFYFYAMDYWGQGTSVTVSS VL: DIVMSQSPSSLAVSAGEKVTMSCKSSQSLLSSRTRKNYLAWYQQKPGQAPKLLISWASTRESGVPDRFTGSGSGTEFTLTISSVQAEDLAVYYCKQSYNLRTFGGGTKLEIK    11200
3) 2299.6G5.C7 (antibody, V domains shown) VH: QIQLVQSGPELKKPGETVKISCKASGYTFTDYSIHWVKQAPGKGLKWMGWINTETGAPTFADDFKGRFAFSLETSASTAFLQINNLKNEDTATYFCAKEGGFYFYAMDYWGQGTSLTVSS VL: DIVMSQSPSSLAVSTGEKVTMSCKSSQSLLSSRTRKNYLAWYQQKPGQAPKLLISWASTRESGVPDRFTGSGSGTDFTLTISSVQAEDLAVYYCKQSFNLRTFGGGTKLEIK    5270
4) 2299.7F11.B4 (antibody, V domains shown) VH: QIQLVQSGPELKKPGETVKISCKASGYTFTDYSIHWVKQAPGKGLKWMAWINTETGDPTYEDDFKGRFAFSLETSASTAYLQINNLKNEDTATYFCSKEGGFYFYAMDYWGQGTSVTVSS VL: DIVMSQSPSSLAVSAGEKVTMSCKSSQSLLSSRTRKNYLAWYQQKPGQSPKLLIKWASTRESGVPDRFTGSGSGTDFTLTISSVQAEDLAVYYCKQSYNLRTFGGGTKLEIK    75700

Let us move to another entry and its kon.
Fill blank: measured kon of the binder 2299.6B3.B8.B6 (antibody, V domains shown) VH: QIQLVQSGPELKKPGETVKISCKASGYAFTDYSIHWMKQAPGEGLQWMGWINTETAKPAFGDDFKGRFAFSLETSANTAHLHINNLRTEDTATYFCAKEGGFYFYAMDYWGQGTSVTVSS VL: DIVMSQSPSSLAVSAGEKVTMNCKSSQSLLSSRTRKNYLAWYQQKPGQSPKLLIYWASTRDSGVPDRFTGSGSGTDFTLTISSVQAEDLAVYYCKQSYNFRTFGGGTKLEIK is ____.
9870
